// pIC50 collected for Macrophage metalloelastase (Homo sapiens)
pIC50: −log10 of the molar value.

{"columns": ["smiles structure", "pIC50"],
 "data": [
  ["C[C@]1(CS(=O)(=O)N2CCC(Oc3ccc(Cl)cc3)CC2)NC(=O)NC1=O", 8.05],
  ["C[C@]1(CS(=O)(=O)N2CCC(Oc3ccc(F)cc3)CC2)NC(=O)NC1=O", 7.63]
]}

---

# experiment: in vitro
# details: human, liver microsomes
value kind: microsomal CLint

{"columns": ["smiles structure", "result"],
 "data": [
  ["C[C@]1(CS(=O)(=O)N2CCC(Oc3ccc(C(F)(F)F)cc3)CC2)NC(=O)NC1=O", "< 10 µL/min/mg"],
  ["Cc1cc(COc2cnc(N3CCN(S(=O)(=O)C[C@@]4(C)NC(=O)NC4=O)CC3)nc2)on1", "< 2 µL/min/mg"],
  ["C[C@]1(CS(=O)(=O)N2CCN(c3ncc(OCc4cnc(C#N)s4)cn3)CC2)NC(=O)NC1=O", "16 µL/min/mg"],
  ["C[C@]1(CS(=O)(=O)N2CCC(Oc3ccc(OC(F)(F)C(F)F)cc3)CC2)NC(=O)NC1=O", "< 2 µL/min/mg"],
  ["CCc1cc(COc2cnc(N3CCN(S(=O)(=O)C[C@@]4(C)NC(=O)NC4=O)CC3)nc2)on1", "< 2 µL/min/mg"],
  ["C[C@]1(CS(=O)(=O)N2CCN(c3ncc(OCc4ccc(F)cc4)cn3)CC2)NC(=O)NC1=O", "16 µL/min/mg"],
  ["C[C@]1(CS(=O)(=O)N2CCN(c3ncc(OCc4ccc(C(F)(F)F)o4)cn3)CC2)NC(=O)NC1=O", "7 µL/min/mg"],
  ["C[C@]1(CS(=O)(=O)N2CCN(c3ncc(OCc4cccc(C#N)c4)cn3)CC2)NC(=O)NC1=O", "< 2 µL/min/mg"]
]}
